# Tested System: EGFR T790M/L858R Ba/F3 cell line (Homo sapiens, UniProt P00533, T790M/L858R, cells depend on it)
# Sequence (P00533 whole entry T790M/L858R): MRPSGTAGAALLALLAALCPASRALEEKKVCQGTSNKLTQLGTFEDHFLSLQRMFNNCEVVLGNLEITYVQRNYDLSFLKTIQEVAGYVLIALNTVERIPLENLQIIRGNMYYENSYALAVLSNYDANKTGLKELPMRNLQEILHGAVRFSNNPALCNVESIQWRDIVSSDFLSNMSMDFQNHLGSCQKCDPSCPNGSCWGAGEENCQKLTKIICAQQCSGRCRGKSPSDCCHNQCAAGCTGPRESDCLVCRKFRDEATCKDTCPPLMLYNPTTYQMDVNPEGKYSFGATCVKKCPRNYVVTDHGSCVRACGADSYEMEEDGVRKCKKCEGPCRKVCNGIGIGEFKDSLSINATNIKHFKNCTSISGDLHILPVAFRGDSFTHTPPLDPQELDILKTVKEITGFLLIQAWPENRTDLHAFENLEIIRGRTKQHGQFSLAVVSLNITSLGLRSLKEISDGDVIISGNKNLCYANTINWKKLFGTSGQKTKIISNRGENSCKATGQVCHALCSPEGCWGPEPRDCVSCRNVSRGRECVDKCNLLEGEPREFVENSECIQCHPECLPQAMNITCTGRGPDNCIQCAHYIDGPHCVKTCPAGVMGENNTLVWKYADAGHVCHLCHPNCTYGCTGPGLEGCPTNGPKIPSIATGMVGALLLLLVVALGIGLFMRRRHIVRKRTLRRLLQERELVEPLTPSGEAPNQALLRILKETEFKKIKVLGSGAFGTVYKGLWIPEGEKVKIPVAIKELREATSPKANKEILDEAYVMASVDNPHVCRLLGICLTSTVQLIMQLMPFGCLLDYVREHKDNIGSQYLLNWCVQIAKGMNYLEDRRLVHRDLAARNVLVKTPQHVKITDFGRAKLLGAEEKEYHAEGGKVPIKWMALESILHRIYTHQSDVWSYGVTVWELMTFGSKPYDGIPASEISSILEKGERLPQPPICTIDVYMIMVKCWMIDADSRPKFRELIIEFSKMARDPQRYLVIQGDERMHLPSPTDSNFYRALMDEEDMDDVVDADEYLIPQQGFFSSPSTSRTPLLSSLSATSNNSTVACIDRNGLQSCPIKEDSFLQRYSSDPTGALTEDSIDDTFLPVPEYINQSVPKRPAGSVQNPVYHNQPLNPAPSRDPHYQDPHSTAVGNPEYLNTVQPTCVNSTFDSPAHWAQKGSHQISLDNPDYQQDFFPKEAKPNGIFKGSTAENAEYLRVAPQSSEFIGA
# Procedure Text: Ba/F3 cell proliferation model
# Format: cell-based, murine
# Applied Conditions: compound alone; read-out: L858R/T790M IC50
# Method: The selectivity between wild-type EGFR and EGFR containing one or more mutations as described herein can also be measured using cellular proliferation assays where cell proliferation is dependent on kinase activity. […] Cell lines are plated in media. […] Cell viability is measured via a luminescent readout. Data is analyzed by non-linear regression curve-fitting. […]
Consider the following compounds and their measured GI50 readings.
Property Label: GI50

[[record]]
compound = "O=C(Nc1nccs1)[C@@H](c1ccccc1)N1Cc2ccc(-c3ccc(N4CCNCC4)cc3F)cc2C1=O [Compound I-120]"
observed = "1 to 10 µM"

[[record]]
compound = "O=C(Nc1nccs1)[C@@H](c1ccccc1)N1Cc2ccc(-c3ccc(CN4CCNCC4)cc3)cc2C1=O [Compound I-121]"
observed = "1 to 10 µM"

[[record]]
compound = "COc1cc(OC)cc(-c2ccc3c(c2)C(=O)N([C@@H](C(=O)Nc2nccs2)c2ccccc2)C3)c1 [Compound I-79]"
observed = "> 10 µM"

[[record]]
compound = "O=C(Nc1nccs1)[C@@H](c1ccccc1)N1Cc2ccc(-c3cnc4ccccc4c3)cc2C1=O [Compound I-70]"
observed = "> 10 µM"

[[record]]
compound = "O=C(Nc1nccs1)[C@@H](c1ccccc1)N1Cc2ccc(-c3ccc(N4CCNCC4)cc3)cc2C1=O [Compound I-68]"
observed = "1 to 10 µM"

[[record]]
compound = "O=C(Nc1nccs1)[C@@H](c1ccccc1)N1Cc2ccc(-c3ccc4c(c3)OCCO4)cc2C1=O [Compound I-65]"
observed = "> 10 µM"

[[record]]
compound = "CN(C)CCNC(=O)c1ccc(-c2ccc3c(c2)C(=O)N([C@@H](C(=O)Nc2nccs2)c2ccccc2)C3)cc1 [Compound I-81]"
observed = "1 to 10 µM"

[[record]]
compound = "O=C(Nc1nccs1)[C@@H](c1cc(F)ccc1O)N1Cc2ccc(-c3ccc(N4CCNCC4)cc3)cc2C1=O [Compound I-126]"
observed = "0.5 to 1 µM"

[[record]]
compound = "CN1CCN(c2ccc(-c3ccc4c(c3)C(=O)N([C@@H](C(=O)Nc3nccs3)c3ccccc3)C4)cc2)CC1 [Compound I-69]"
observed = "1 to 10 µM"

[[record]]
compound = "O=C(Nc1nccs1)[C@H](c1ccccc1)N1Cc2ccc(-c3ccc(N4CCNCC4)cc3)cc2C1=O [Compound I-115]"
observed = "1 to 10 µM"

[[record]]
compound = "O=C(Nc1nccs1)[C@@H](c1ccccc1)N1Cc2ccc(-c3ccc4[nH]ccc4c3)cc2C1=O [Compound I-66]"
observed = "1 to 10 µM"

[[record]]
compound = "O=C(Nc1nccs1)[C@H](c1ccccc1)N1Cc2ccc(-c3ccc4[nH]ccc4c3)cc2C1=O [Compound I-112]"
observed = "1 to 10 µM"

[[record]]
compound = "O=C(Nc1nccs1)[C@H](c1ccccc1)N1Cc2ccc(-c3ccccc3F)cc2C1=O [Compound I-113]"
observed = "> 10 µM"

[[record]]
compound = "O=C(Nc1nccs1)C(c1cccc(F)c1)N1Cc2ccc(-c3ccc4[nH]ccc4c3)cc2C1=O (stereo not shown) [Compound I-122]"
observed = "1 to 10 µM"

[[record]]
compound = "O=C(Nc1nccs1)[C@@H](c1ccccc1)N1Cc2ccc(-c3ccccc3F)cc2C1=O [Compound I-75]"
observed = "> 10 µM"

[[record]]
compound = "CC(C)(C)OC(=O)N1CCN(c2ccc(-c3ccc4c(c3)C(=O)N([C@@H](C(=O)Nc3nccs3)c3ccccc3)C4)c(F)c2)CC1 [Compound I-119]"
observed = "> 10 µM"


The values you see were collected from patent US10385019B2.
